Entries and their normalized growth
# Procedure text: chemical genetic growth profiling, strain panel (AID 1159580);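 further: tested at 20 µM; growth read once vehicle control cultures reached saturation at 30 °C; 1 = growth at the plate median or of vehicle wells; lower values mean less growth of the strain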
# Experimental setup: S. cerevisiae deletion strains, growth OD, locus YDL040C, strain nat1, hits give low values
Hit rate of the full screen: of about 5,500 compounds, about 2,000 (36%) were called active. About 18% were inconclusive and are not listed. Some of the results follow.
Lab note: write the figure by itself, no unit.

| Molecule | Experimental value |
| --- | --- |
| CCOC(=O)c1c(C)cc(OC)cc1O | 0.959 |
| CN1C[C@H](C(=O)N[C@]2(C)O[C@@]3(O)[C@@H]4CCCN4C(=O)[C@H](Cc4ccccc4)N3C2=O)C[C@@H]2c3cccc4[nH]cc(c34)C[C@H]21 | 1 |
| COc1cc(OC)c2ccc(=O)oc2c1 | 0.974 |
| COc1ccc2c(c1)CCC1C2CC[C@@]2(C)C1CC[C@@H]2O (some centres not stated) | 0.96 |
| COc1cc(OC)c2c(=O)c(OC)c(-c3ccc(OC)c(OC)c3)oc2c1 | 1.01 |

QUERY: Note normalized growth for the molecule shown: C=C[C@H]1CN2CC[C@H]1C[C@@H]2[C@@H](OC(=O)OCC)c1ccnc2ccc(OC)cc12
RESULT: 0.994

QUERY: Note normalized growth for the molecule shown: COc1ccc(-c2oc3c(CC=C(C)C)c(O[C@@H]4O[C@H](CO)[C@@H](O)[C@H](O)[C@H]4O)cc(O)c3c(=O)c2O[C@@H]2O[C@@H](C)[C@H](O)[C@@H](O)[C@H]2O)cc1
RESULT: 1.02

QUERY: Note normalized growth for the molecule shown: C[C@]12CCC3c4ccc(O)cc4CCC3C1C[C@@H](O)[C@@H]2O (some centres not stated)
RESULT: 1.01

====

# Procedure text: chemical genetic growth profiling, strain panel (AID 1159580)
# Experimental setup: S. cerevisiae deletion strains, growth OD, locus YBR229C, strain ROT2
In all, about 5,500 compounds went through this assay and about 2,000 (36%) were called active. Roughly 18% stayed inconclusive and do not appear here. Cut-off read from the data, not from the text of the source: active = normalized growth mostly below about 0.91 (no sharp cut-off); inconclusive = no clear call, values can overlap the other calls; inactive = mostly above about 0.92. The list shows a part of the results.
Select the correct class. Options are yes (1) (active), no (0) (inactive) and nothing else.

Illustrative cases are given below, each with its answer.
| Compound | Assigned class |
| --- | --- |
| COc1ccc(-c2cc(=O)c3c(O)cc(O[C@@H]4O[C@H](CO[C@H]5O[C@H](C)[C@@H](O)[C@H](O)[C@@H]5O)[C@@H](O)[C@H](O)[C@H]4O)cc3o2)cc1O | no (0) |
| CO[C@@]1(NC(=O)C(C(=O)O)c2ccc(O)cc2)C(=O)N2C(C(=O)O)=C(CSc3nnnn3C)CO[C@@H]21 (some centres undefined) | no (0) |
| OC1(C(F)(F)F)CC(c2ccccc2)=NN1 (centres undefined) | no (0) |

QUERY: Which result was noted for this compound in the test: OC1(C(F)(F)F)CC(c2ccc3ccccc3c2)=NN1 (centres undefined)
RESULT: yes (1)

QUERY: Which result was noted for this compound in the test: COc1ccc(-c2oc3cc(O[C@H]4O[C@H](CO)[C@@H](O)[C@H](O)[C@H]4O)c(OC)c(O)c3c(=O)c2OC)cc1O
RESULT: no (0)

QUERY: Which result was noted for this compound in the test: NC(=NCCC[C@H](N)C(=O)O)N[N+](=O)[O-]
RESULT: no (0)

QUERY: Which result was noted for this compound in the test: O=c1c(O)c(-c2ccc(O)cc2O)oc2cc(O)cc(O)c12
RESULT: no (0)

QUERY: Which result was noted for this compound in the test: Cc1cc(I)c(C)cc1I
RESULT: no (0)

QUERY: Which result was noted for this compound in the test: O=c1cc(-c2ccc(O)cc2)oc2cc(O[C@@H]3O[C@H](CO)[C@@H](O)[C@H](O)[C@H]3O)cc(O)c12
RESULT: no (0)

====

# Procedure text: chemical genetic growth profiling, strain panel (AID 1159580)
# Experimental setup: S. cerevisiae deletion strains, growth OD, locus YMR263W, strain SAP30, hits give low values
Out of some 5,500 compounds screened, about 2,000 (36%) were called active. About 18% were inconclusive and are not listed. The list shows a part of the results.
Values of normalized growth strictly less than 1 map to Condition met, and values of at least 1 map to Condition not met.

Illustrative cases are given below, each with its answer.
| Molecule smiles | Assigned class |
| --- | --- |
| CN(C)C=Nc1nnc(Sc2nc3cc(Cl)ccc3s2)s1 | Condition met |
| O=c1c(O)c(-c2cc(O)c(O)c(O)c2)oc2cc(O)cc(O)c12 | Condition not met |

Lab note: next molecule to report on.
QUERY: Lab note: confirm whether the reported normalized growth for this molecule is below 1, equality not counting. molecule: Cc1onc(-c2ccc(Cl)cc2)c1-c1ccnn1C(=O)NC(C)C
RESULT: Condition met

====

# Procedure text: chemical genetic growth profiling, strain panel (AID 1159580);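 further: tested at 20 µM; growth read once vehicle control cultures reached saturation at 30 °C; 1 = growth at the plate median or of vehicle wells; lower values mean less growth of the strain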
# Experimental setup: S. cerevisiae deletion strains, growth OD, locus YDL101C, strain DUN1, hits give low values
About 2,000 (36%) of roughly 5,500 compounds were called active. Roughly 18% stayed inconclusive and do not appear here. The list shows a part of the results.
Entries and their normalized growth
Lab note: write the figure by itself, no unit.

Recorded normalized growth, per entry:
| Molecule | normalized growth |
| --- | --- |
| C[C@@H]1CC[C@@]2(NC1)O[C@H]1C[C@H]3C4CC=C5C[C@@H](O)CC[C@]5(C)C4CC[C@]3(C)C1[C@@H]2C (some centres undefined) | 0.0946 |
| Cc1onc(-c2ccc(Cl)cc2)c1-c1ccnn1C(=O)NC(C)C | 0.974 |

Now for the molecule whose normalized growth we want.
QUERY: Note normalized growth for the molecule shown: CC1CC[C@@]2(OC1)O[C@H]1CC3C4CC[C@@H]5CC(=O)CC[C@]5(C)C4CC[C@]3(C)[C@H]1[C@@H]2C (some centres undefined)
RESULT: 0.975

====

# Procedure text: chemical genetic growth profiling, strain panel (AID 1159580);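 further: tested at 20 µM; growth read once vehicle control cultures reached saturation at 30 °C; 1 = growth at the plate median or of vehicle wells; lower values mean less growth of the strain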
# Experimental setup: S. cerevisiae deletion strains, growth OD, locus YHR142W, strain chs7
The campaign covered roughly 5,500 compounds. About 2,000 (36%) were called active. About 18% were inconclusive and are not listed. Cut-off read from the data, not from the text of the source: active = normalized growth mostly below about 0.91 (no sharp cut-off); inconclusive = no clear call, values can overlap the other calls; inactive = mostly above about 0.92. This is one part of the list.
Select the correct class. Options are label 1 = active, label 0 = inactive and nothing else.

QUERY: Which result was noted for this compound in the test: COc1cccc2c(C)cc(=O)[nH]c12
RESULT: label 1

QUERY: Which result was noted for this compound in the test: Cc1[nH]ccc2c1[nH]c1cc(=O)ccc12
RESULT: label 0

====

# Procedure text: chemical genetic growth profiling, strain panel (AID 1159580);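 further: tested at 20 µM; growth read once vehicle control cultures reached saturation at 30 °C; 1 = growth at the plate median or of vehicle wells; lower values mean less growth of the strain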
# Experimental setup: S. cerevisiae deletion strains, growth OD, locus YJL154C, strain vps35, hits give low values
The campaign covered roughly 5,500 compounds. About 2,000 (36%) were called active. Inconclusive results (about 18%) are left out. The list shows a part of the results.
Entries and their normalized growth
Lab note: write the figure by itself, no unit.

Recorded normalized growth, per entry:
| Compound | normalized growth |
| --- | --- |
| COc1ccc(-c2cc(=O)c3c(O)cc(O[C@@H]4O[C@H](CO[C@H]5O[C@H](C)[C@@H](O)[C@H](O)[C@@H]5O)[C@@H](O)[C@H](O)[C@H]4O)cc3o2)cc1O | 1.02 |
| O=c1c(O)c(-c2ccc(O)c(O)c2)oc2c(O)c(O)cc(O)c12 | 1.02 |
| CN1C[C@H](C(=O)N[C@]2(C)O[C@@]3(O)[C@@H]4CCCN4C(=O)[C@H](Cc4ccccc4)N3C2=O)C[C@@H]2c3cccc4[nH]cc(c34)C[C@H]21 | 0.982 |
| CC(CC(O)C1OC1(C)C)[C@@H]1CCC2(C)C3=CCC4C(C)(C)C(=O)CCC4(C)C3CC[C@@]12C (stereo not given in full) | 1 |

QUERY: Note normalized growth for the compound shown: COc1cc(O)c2c(=O)c(O)c(-c3ccc(O)c(O)c3)oc2c1
RESULT: 0.957

QUERY: Note normalized growth for the compound shown: COc1ccc(-c2oc3c(CC=C(C)C)c(O[C@@H]4O[C@H](CO)[C@@H](O)[C@H](O)[C@H]4O)cc(O)c3c(=O)c2O[C@@H]2O[C@@H](C)[C@H](O)[C@@H](O)[C@H]2O)cc1
RESULT: 1.04

QUERY: Note normalized growth for the compound shown: CCN(Cc1ccncc1)C(=O)C(CO)c1ccccc1 (stereo not given)
RESULT: 1.02

QUERY: Note normalized growth for the compound shown: O=c1c(O)c(-c2ccc(O)cc2O)oc2cc(O)cc(O)c12
RESULT: 1.02

QUERY: Note normalized growth for the compound shown: CCOC(=O)c1c(C)cc(O)cc1O
RESULT: 0.922

QUERY: Note normalized growth for the compound shown: C[C@@H]([C@H](O)c1ccccc1)N(C)C
RESULT: 1.02

QUERY: Note normalized growth for the compound shown: OCC(O)C(O)C(O)C(O)C(O)CO (stereo not given)
RESULT: 0.991

QUERY: Note normalized growth for the compound shown: C=CC1C2=CCOC(=O)C2=COC1OC1OC(CO)C(O)C(O)C1O (stereo not given)
RESULT: 1.01

QUERY: Note normalized growth for the compound shown: CCOC(=O)c1c(C)cc(OC)cc1O
RESULT: 0.97

QUERY: Note normalized growth for the compound shown: CC(C1OC(C)(C)C(O)C1O)[C@@H]1CC[C@]2(C)C3=CCC4C(C)(C)C(=O)CC[C@]4(C)C3CC[C@@]12C (stereo not given in full)
RESULT: 1.01

QUERY: Note normalized growth for the compound shown: NS(=O)(=O)c1cc(C2(O)NC(=O)c3ccccc32)ccc1Cl (stereo not given)
RESULT: 0.984

QUERY: Note normalized growth for the compound shown: CC(=O)OC(C)C[N+](C)(C)C (stereo not given)
RESULT: 1.01

QUERY: Note normalized growth for the compound shown: CCCCCc1c2c(cc(O)c1C(=O)O)OC(=O)c1c(cc(OC)cc1C(=O)CCCC)O2
RESULT: 0.996

QUERY: Note normalized growth for the compound shown: C[C@]12CCC3c4ccc(O)cc4CCC3C1C[C@@H](O)[C@@H]2O (stereo not given in full)
RESULT: 1.01

QUERY: Note normalized growth for the compound shown: O=c1c(O)c(-c2ccc(O)c(O)c2)oc2cc(O)cc(O)c12
RESULT: 0.985

QUERY: Note normalized growth for the compound shown: COc1ccc2c(c1)CCC1C2CCC2(C)C1C[C@@H](O)C2O (stereo not given in full)
RESULT: 1.02
